Where do these numbers come from? They come from patent US11505533B2.

# Tested on: E. coli TolC(−)
# condition-description: MIC in the presence of 10% fetal calf serum versus without
endpoint-name: Fold Serum Shift vs. TolC(−)

O=C(Nc1nnc(-c2ccc(F)cc2)o1)N1CC(C(F)(F)F)C(C(F)(F)F)C1 (stereo not shown)    12.5 fold
O=C(Nc1nnc(C2CCCC2)o1)c1ccc(Oc2ccccc2)nc1    7.1 fold
CC1=C(Br)CN(C(=O)Nc2nnc(-c3ccc(F)cc3)o2)CC1    18 fold
O=C(Nc1nnc(C2CCCCC2)o1)c1ccc(Oc2cccc(O)c2)cc1    16 fold
O=C(Nc1nnc(-c2ccc(F)cc2)o1)N1CCC2(CCC2)CC1    4 fold
O=C(Nc1nnc(-c2ccc(F)cc2)o1)N1CCC(Cl)=C(Cl)C1    32 fold
CC(C)(C)C1=CCN(C(=O)Nc2nnc(-c3ccc(F)cc3)o2)CC1    8 fold

* * *

# Tested on: Rolipram
# Assay type: binding
# condition-description: 10 μM; rat
endpoint-name: % Inhibition (%)

O=C(Nc1nnc(-c2ccc(F)cc2)o1)N1CCc2ccccc2C1 [MBX-4132]    2
O=C(Nc1nnc(-c2ccc(F)cc2)o1)c1ccc(OC2CCCCC2)cc1 [MBX-4292]    −8
O=C(Nc1nnc(-c2ccc(F)cc2)o1)N1CC=C(C(F)(F)F)CC1 [MBX-4347]    −6
O=C(Nc1nnc(-c2ccc(F)cc2)o1)c1ccc(Oc2ccccc2)nc1 [MBX-4237]    1

* * *

# target-under-test: CYP2C19 (Homo sapiens)
# Sequence (P33261 whole entry): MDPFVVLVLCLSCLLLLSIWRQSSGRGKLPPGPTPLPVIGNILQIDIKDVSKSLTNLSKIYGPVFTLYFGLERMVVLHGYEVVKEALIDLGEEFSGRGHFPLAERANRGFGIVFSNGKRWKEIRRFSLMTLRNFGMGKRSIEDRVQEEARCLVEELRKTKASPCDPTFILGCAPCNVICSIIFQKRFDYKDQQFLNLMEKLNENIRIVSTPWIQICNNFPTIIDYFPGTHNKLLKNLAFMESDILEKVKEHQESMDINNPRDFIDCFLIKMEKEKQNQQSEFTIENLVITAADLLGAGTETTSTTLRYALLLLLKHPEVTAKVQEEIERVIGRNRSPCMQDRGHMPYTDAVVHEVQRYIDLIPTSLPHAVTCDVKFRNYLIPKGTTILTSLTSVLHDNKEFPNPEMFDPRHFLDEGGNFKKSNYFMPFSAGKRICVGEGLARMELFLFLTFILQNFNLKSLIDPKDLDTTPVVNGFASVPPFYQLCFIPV
endpoint-name: inhibition at 10 µM (%)

O=C(Nc1nnc(-c2ccc(F)cc2)o1)c1ccc(Oc2ccccc2)nc1    3

* * *

# assay-text: Mouse serum stability
# condition-description: 5 μM, 37° C., 4 h
endpoint-name: Serum Stability (% remain)

O=C(Nc1nnc(-c2ccc(F)cc2)o1)N1CC=C(C(F)(F)F)CC1 [compound 4347]    93%
O=C(Nc1nnc(C2CCCCC2)o1)N1CCC(Cl)=C(Cl)C1 [compound 4808]    >95%
O=C(Nc1nnc(-c2ccc(F)cc2)o1)c1ccc(OC2CCCCC2)cc1 [compound 4292]    82%
O=C(Nc1nnc(-c2ccc(F)cc2)o1)N1CC(C(F)(F)F)C(C(F)(F)F)C1 (centres unmarked) [compound 4839]    >95%
O=C(Nc1nnc(-c2ccc(F)cc2)o1)N1CCc2ccccc2C1 [compound 4132]    >95%

* * *

solubility reference
# assay-text: Aqueous solubility, nephelometry
# condition-description: water, kinetic from dmso stock
endpoint-name: solubility (µM)

Cc1ccc(Oc2ccc(C(=O)Nc3nnc(-c4ccc(F)cc4)o3)cc2)cc1 [compound 4305]    3.13
COC(=O)C1=CCN(C(=O)Nc2nnc(-c3ccc(F)cc3)o2)CC1 [compound 4348]    25
Cc1cccc(Oc2ccc(C(=O)Nc3nnc(-c4ccc(F)cc4)o3)cc2)c1 [compound 4306]    6.25
O=C(Nc1nnc(-c2ccc(F)cc2)o1)N1CCN(c2ncccn2)CC1 [compound 4465]    12.5
O=C(Nc1nnc(-c2ccc(F)cc2)o1)c1ccc(Oc2ccccc2)nc1 [compound 4237]    6.25
O=C(Nc1nnc(-c2ccc(F)cc2)o1)c1ccc(OC2CCCCC2)cc1 [compound 4292]    6.25
O=C(Nc1nnc(-c2ccc(F)cc2)o1)N1CCC(Cl)=C(Cl)C1 [compound 4737]    6.3
O=C(Nc1nnc(C2CCCCC2)o1)c1ccc(Oc2cccc(O)c2)cc1 [compound 4801]    12.5
O=C(Nc1nnc(-c2ccc(F)cc2)o1)N1CC(C(F)(F)F)C(C(F)(F)F)C1 (stereo not shown) [compound 4839]    6.25
O=C(Nc1nnc(-c2ccc(F)cc2)o1)N1CC=C(C(F)(F)F)CC1 [compound 4347]    3.1
COc1cccc(Oc2ccc(C(=O)Nc3nnc(-c4ccc(F)cc4)o3)cc2)c1 [compound 4309]    6.25
CC(C)(C)OC(=O)N1CC(Oc2ccc(C(=O)Nc3nnc(-c4ccc(F)cc4)o3)cc2)C1 [compound 4288]    25
O=C(Nc1nnc(-c2ccc(F)cc2)o1)c1ccc(Oc2cccc(O)c2)cc1 [compound 4304]    50
Cc1ccccc1Oc1ccc(C(=O)Nc2nnc(-c3ccc(F)cc3)o2)cc1 [compound 4307]    12.5
O=C(Nc1nnc(-c2ccc(F)cc2)o1)N1CCc2ccccc2C1 [compound 4132]    6.25
COc1ccc(Oc2ccc(C(=O)Nc3nnc(-c4ccc(F)cc4)o3)cc2)cc1 [compound 4310]    6.25
CCN(c1ccccc1)c1ccc(C(=O)Nc2nnc(-c3ccc(F)cc3)o2)cc1 [compound 4285]    3.12
O=C(Nc1nnc(-c2ccc(F)cc2)o1)N1CCc2cc(F)ccc2C1 [compound 4331]    12.5
CC(C)(C)COc1ccc(C(=O)Nc2nnc(-c3ccc(F)cc3)o2)cc1 [compound 4284]    3.12
Cc1cccc(-c2nnc(NC(=O)c3ccc(Oc4ccccc4)nc3)o2)c1 [compound 4499]    25
O=C(Nc1nnc(-c2ccc(F)cc2)o1)N1Cc2ccccc2C1 [compound 4330]    3.13
Cc1cc(C)cc(Oc2ccc(C(=O)Nc3nnc(-c4ccc(F)cc4)o3)cc2)c1 [compound 4308]    3.13
